subjectOfTest: T1, V domain of human CD33 (human, UniProt P20138 18-139, limits assumed)
T1 construct: recombinant, fully glycosylated V domain; also called Human CD33 V domain
methodNotes: SPR, Fab captured, 37C;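 note: Anti-CD33 Fabs captured on anti-Fab chip, soluble monomeric CD33 or its domains flowed over at several concentrations, double-referenced data fitted 1:1, Kd taken as koff/kon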
measuredMetric: koff (s⁻¹)
Response body: numeric value in s⁻¹, unit text excluded.

[[record]]
binder = "ADI-10177 Fab (Fab, V domains shown, Fab fragment; also called Ab2) VH: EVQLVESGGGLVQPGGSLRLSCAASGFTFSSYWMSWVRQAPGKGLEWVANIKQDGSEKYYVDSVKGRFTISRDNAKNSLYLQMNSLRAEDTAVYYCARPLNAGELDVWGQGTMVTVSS VL: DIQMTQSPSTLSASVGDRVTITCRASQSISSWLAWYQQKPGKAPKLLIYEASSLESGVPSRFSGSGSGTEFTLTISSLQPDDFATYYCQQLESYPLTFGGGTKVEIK"
measuredmetric = "koff"
testvalue = 0.0857

[[record]]
binder = "ADI-10161 Fab (Fab, V domains shown, Fab fragment; also called Ab16) VH: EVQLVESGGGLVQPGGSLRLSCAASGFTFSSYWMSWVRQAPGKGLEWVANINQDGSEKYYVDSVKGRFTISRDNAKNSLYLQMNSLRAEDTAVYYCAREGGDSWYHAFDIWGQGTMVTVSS VL: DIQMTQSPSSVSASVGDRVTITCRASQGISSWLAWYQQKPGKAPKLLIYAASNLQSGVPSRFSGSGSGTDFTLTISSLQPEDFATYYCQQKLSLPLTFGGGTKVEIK"
measuredmetric = "koff"
testvalue = 0.124


Please find the next binder below.
(Q) // koff lookup, key: ADI-11819 Fab (Fab, V domains shown, Fab fragment; also called Ab8) VH: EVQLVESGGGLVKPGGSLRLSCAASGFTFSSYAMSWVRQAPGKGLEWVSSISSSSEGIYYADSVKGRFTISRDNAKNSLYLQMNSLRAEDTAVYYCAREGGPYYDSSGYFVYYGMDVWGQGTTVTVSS VL: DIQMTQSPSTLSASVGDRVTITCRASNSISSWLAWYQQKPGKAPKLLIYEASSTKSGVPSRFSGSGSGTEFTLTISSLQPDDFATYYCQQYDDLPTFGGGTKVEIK
(A) 0.000916
